target-under-test: T1, 4H428-AA
T1 chain: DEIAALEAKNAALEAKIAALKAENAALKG
assay-info: two-hybrid library CCmax;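 note: natural log of median RNA to DNA barcode read ratio; higher means stronger binding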
condition-summary: mean of both orientations
Everything with interaction score lower than -1 is Condition not met; everything else, including exactly -1, is Condition met.

Would you please look over these solved cases?
| binder | answer-label |
| --- | --- |
| DKNAALKAEIAALEAEIAALEAKNAALEG [4H3591-AA] | Condition not met |
| DKNAALEAKIAALKAENAALKAEIAALEG [4H3417-AA] | Condition met |
| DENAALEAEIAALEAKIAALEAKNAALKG [4H1064-AA] | Condition not met |
| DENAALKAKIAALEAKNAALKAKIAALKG [4H1854-AA] | Condition met |

Asked: Is interaction score for DKNAALKAEIAALKAENAALEAEIAALKG [4H3666-AA] at or above -1?
Given back: Condition not met

Asked: Is interaction score for DKNAALKAEIAALKAKNAALKAKIAALEG [4H3709-AA] at or above -1?
Given back: Condition not met

Asked: Is interaction score for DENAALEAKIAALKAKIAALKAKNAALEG [4H1391-AA] at or above -1?
Given back: Condition not met

Asked: Is interaction score for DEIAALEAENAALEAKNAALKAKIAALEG [4H189-AA] at or above -1?
Given back: Condition not met

Source listed as paper PMC10397247.
